# System: Plasma
# assay procedure: Prodrug activation in mouse plasma assessed as 2-phosphonomethylpentanedioic acid formation at 30 mg/kg administered via oral gavage after 30 mins by LC/MS/MS analysis
# Format: organism-based
# measurement conditions: in vivo, 0.5 h
reported metric: Drug metabolism (µM)

Here's what some known entries look like.
* COC(=O)C(CCC(=O)O)CP(=O)(OCOC(=O)C(C)(C)C)OCOC(=O)C(C)(C)C (stereo not given) | 0.74
* CC(C)(C)C(=O)OCOC(=O)C(CCC(=O)O)CP(=O)(OCOC(=O)C(C)(C)C)OCOC(=O)C(C)(C)C (stereo not given) | 15.8
* CCOC(=O)C(CCC(=O)O)CP(=O)(OCOC(=O)OC(C)C)OCOC(=O)OC(C)C (stereo not given) | 0.49

(a) CCOC(=O)C(CCC(=O)O)CP(=O)(OCOC(=O)C(C)(C)C)OCOC(=O)C(C)(C)C (stereo not given)
(b) CC(C)OC(=O)OCOC(=O)C(CCC(=O)O)CP(=O)(OCOC(=O)OC(C)C)OCOC(=O)OC(C)C (stereo not given)
stdin: a or b : whose Drug metabolism is greater? Record your answer as the label of the chosen record.
stdout: b
(b: 15.66 µM, a: 0.54 µM)

----------
# assay procedure: Metabolic stability in mouse plasma assessed as compound remaining at 10 uM after 1 hr by LC/MS/MS analysis
# Type: ADME, cell-free
# measurement conditions: read-out: Stability
reported metric: remaining at 1 h, 10 µM (%)

Here's what some known entries look like.
- COC(=O)CCC(CP(=O)(OCOC(=O)OC(C)C)OCOC(=O)OC(C)C)C(=O)OC (stereo not given): 0.1
- CCOC(=O)CCC(CP(=O)(OCOC(=O)C(C)(C)C)OCOC(=O)C(C)(C)C)C(=O)OCC (stereo not given): 0
- CCOC(=O)C(CCC(=O)O)CP(=O)(OCOC(=O)OC(C)C)OCOC(=O)OC(C)C (stereo not given): 0

(A) COC(=O)CCC(CP(=O)(OCOC(=O)C(C)(C)C)OCOC(=O)C(C)(C)C)C(=O)OC (stereo not given)
(B) COC(=O)CCC(CP(=O)(O)O)C(=O)OC (stereo not given)
stdin: A or B : whose remaining at 1 h, 10 µM is greater? Record your answer as the label of the chosen record.
stdout: B

----------
# assay procedure: Tmax in mouse at 30 mg/kg administered via oral gavage measured after 15 mins to 4 hrs by LC/MS/MS analysis
# Assay type: ADME, organism-based
# measurement conditions: in vivo
reported metric: Tmax (h)
Enter your answer as a number in h; do not include the unit.

stdin: Recorded Tmax for O=C(O)CCC(CP(=O)(O)O)C(=O)O (stereo unspecified) , please?
stdout: 1

----------
# assay procedure: Metabolic stability in mouse liver microsomes assessed as compound remaining at 10 uM after 1 hr by LC/MS/MS analysis
# Type: ADME
# measurement conditions: read-out: Stability
reported metric: remaining at 1 h, 10 µM (%)

* CCOC(=O)CCC(CP(=O)(OCOC(=O)C(C)(C)C)OCOC(=O)C(C)(C)C)C(=O)OCC (stereo unspecified) | 0

(I) CC(C)OC(=O)OCOC(=O)C(CCC(=O)O)CP(=O)(OCOC(=O)OC(C)C)OCOC(=O)OC(C)C (stereo unspecified)
(II) COC(=O)CCC(CP(=O)(OCOC(=O)OC(C)C)OCOC(=O)OC(C)C)C(=O)OC (stereo unspecified)
(III) CCOC(=O)CCC(CP(=O)(O)O)C(=O)OCC (stereo unspecified)
stdin: Order the 3 compounds from highest to lowest remaining at 1 h, 10 µM. Dear reader, please state the labels in the requested order.
stdout: III, II, I
(III: 83%, II: 0.1%, I: 0%)

----------
# assay procedure: Metabolic stability in human plasma assessed as compound remaining at 10 uM after 1 hr by LC/MS/MS analysis
# Type: ADME, cell-free
# measurement conditions: read-out: Stability
reported metric: remaining at 1 h, 10 µM (%)

(a) CCOC(=O)CCC(CP(=O)(OCOC(=O)C(C)(C)C)OCOC(=O)C(C)(C)C)C(=O)OCC (stereo unspecified)
(b) CCOC(=O)C(CCC(=O)O)CP(=O)(OCOC(=O)C(C)(C)C)OCOC(=O)C(C)(C)C (stereo unspecified)
(c) COC(=O)CCC(CP(=O)(OCOC(=O)C(C)(C)C)OCOC(=O)C(C)(C)C)C(=O)OC (stereo unspecified)
(d) COC(=O)CCC(CP(=O)(OCOC(=O)OC(C)C)OCOC(=O)OC(C)C)C(=O)OC (stereo unspecified)
stdin: Ranking criterion: remaining at 1 h, 10 µM, increasing numeric value. Items: as listed above. Dear reader, please state the labels in the requested order.
stdout: d, a, c, b
(d: 0%, a: 18%, c: 29%, b: 61%)

(A) CC(C)OC(=O)OCOC(=O)C(CCC(=O)O)CP(=O)(OCOC(=O)OC(C)C)OCOC(=O)OC(C)C (stereo unspecified)
(B) CCOC(=O)CCC(CP(=O)(O)O)C(=O)OCC (stereo unspecified)
stdin: Hi there, can you help? I need to know whether A or B has lower measured remaining at 1 h, 10 µM. Record your answer as the label of the chosen record.
stdout: A

----------
# assay procedure: Metabolic stability in mouse liver microsomes assessed as compound remaining at 10 uM after 1 hr by LC/MS/MS analysis
# Type: ADME
# measurement conditions: read-out: Stability
reported metric: remaining at 1 h, 10 µM (%)

Here's what some known entries look like.
• CCOC(=O)C(CCC(=O)O)CP(=O)(OCOC(=O)C(C)(C)C)OCOC(=O)C(C)(C)C (configuration not stated) = 0
• CCOC(=O)C(CCC(=O)O)CP(=O)(OCOC(=O)OC(C)C)OCOC(=O)OC(C)C (configuration not stated) = 0
• COC(=O)C(CCC(=O)O)CP(=O)(OCOC(=O)C(C)(C)C)OCOC(=O)C(C)(C)C (configuration not stated) = 0
• O=C(O)CCC(CP(=O)(O)O)C(=O)O (configuration not stated) = 100
• CC(C)(C)C(=O)OCOC(=O)C(CCC(=O)O)CP(=O)(OCOC(=O)C(C)(C)C)OCOC(=O)C(C)(C)C (configuration not stated) = 0

(1) COC(=O)CCC(CP(=O)(OCOC(=O)C(C)(C)C)OCOC(=O)C(C)(C)C)C(=O)OC (configuration not stated)
(2) COC(=O)CCC(CP(=O)(O)O)C(=O)OC (configuration not stated)
stdin: Hi there, can you help? I need to know whether 1 or 2 has lower measured remaining at 1 h, 10 µM. Record your answer as the label of the chosen record.
stdout: 1

----------
# assay procedure: Metabolic stability in human plasma assessed as compound remaining at 10 uM after 1 hr by LC/MS/MS analysis
# Format: ADME, cell-free
# measurement conditions: read-out: Stability
reported metric: remaining at 1 h, 10 µM (%)

* COC(=O)CCC(CP(=O)(O)O)C(=O)OC (stereo not given) | 96
* CCOC(=O)C(CCC(=O)O)CP(=O)(OCOC(=O)OC(C)C)OCOC(=O)OC(C)C (stereo not given) | 80
* COC(=O)C(CCC(=O)O)CP(=O)(OCOC(=O)C(C)(C)C)OCOC(=O)C(C)(C)C (stereo not given) | 82
* CC(C)(C)C(=O)OCOC(=O)C(CCC(=O)O)CP(=O)(OCOC(=O)C(C)(C)C)OCOC(=O)C(C)(C)C (stereo not given) | 79
* O=C(O)CCC(CP(=O)(O)O)C(=O)O (stereo not given) | 83
